Entry source: paper PMC7955952

# tgt: Focal adhesion kinase (FAK) (Homo sapiens)
# Sequence (Q05397 393-698): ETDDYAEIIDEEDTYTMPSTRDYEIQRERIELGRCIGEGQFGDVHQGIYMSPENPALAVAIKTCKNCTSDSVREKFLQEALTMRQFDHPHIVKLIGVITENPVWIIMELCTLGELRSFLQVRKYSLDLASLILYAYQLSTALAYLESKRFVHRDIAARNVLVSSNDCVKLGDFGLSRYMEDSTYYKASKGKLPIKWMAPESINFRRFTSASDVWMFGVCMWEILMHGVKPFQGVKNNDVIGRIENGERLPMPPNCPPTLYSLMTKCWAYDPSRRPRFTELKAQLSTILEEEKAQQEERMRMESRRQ
parameter: pIC50
Would you please state pIC50, meaning minus log10 of the concentration in mol/L, as a bare number?

The compound CS(=O)(=O)c1cccc(CNc2nc(Nc3ccc4c(c3)CCC(=O)N4)ncc2C(F)(F)F)c1 , tested on Focal adhesion kinase (FAK) (Homo sapiens), showed pIC50 of 8.05
